target: Nicotinamide phosphoribosyltransferase (Homo sapiens); assay: Biochemical Inhibition Assay: The NAMPT enzymatic reactions were carried out in Buffer A (50 mM Hepes pH 7.5, 50 mM NaCl, 5 mM MgCl2, and 1 mM THP) in 96-well V-bottom plates. The compound titrations were performed in a separate dilution plate by serially diluting the compounds in DMSO to make a 100x stock. Buffer A (89 uL) containing 33 nM of NAMPT protein was added to 1 uL of 100x compound …
Sequence (P43490 whole entry): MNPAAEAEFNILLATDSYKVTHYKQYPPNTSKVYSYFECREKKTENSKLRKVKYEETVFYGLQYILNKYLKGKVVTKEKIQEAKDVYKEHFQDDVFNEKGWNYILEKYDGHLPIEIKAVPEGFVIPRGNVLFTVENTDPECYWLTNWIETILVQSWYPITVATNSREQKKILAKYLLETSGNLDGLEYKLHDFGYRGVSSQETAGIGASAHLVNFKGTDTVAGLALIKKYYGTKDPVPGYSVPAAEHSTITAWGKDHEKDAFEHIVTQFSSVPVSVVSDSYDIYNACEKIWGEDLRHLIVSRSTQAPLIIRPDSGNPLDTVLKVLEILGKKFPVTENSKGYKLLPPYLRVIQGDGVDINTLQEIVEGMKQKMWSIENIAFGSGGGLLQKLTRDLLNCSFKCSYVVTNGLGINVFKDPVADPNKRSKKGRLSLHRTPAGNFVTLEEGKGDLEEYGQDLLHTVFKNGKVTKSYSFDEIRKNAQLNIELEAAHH
Description: Biochemical Inhibition Assay: The NAMPT enzymatic reactions were carried out in Buffer A (50 mM Hepes pH 7.5, 50 mM NaCl, 5 mM MgCl2, and 1 mM THP) in 96-well V-bottom plates. The compound titrations were performed in a separate dilution plate by serially diluting the compounds in DMSO to make a 100x stock. […] The compound and enzyme mix was incubated for 15 minutes at room temperature, then 10 uL of 10x substrate and co-factors in Buffer A were added to the test well to make a final concentration of 1 uM NAM, 100 uM 5-Phospho-D-ribose 1-diphosphate (PRPP), and 2.5 mM Adenosine 5'-triphosphate (ATP). The reaction was allowed to proceed for 30 minutes at room temperature, then was quenched with the addition of 11 uL of a solution of formic acid and L-Cystathionine to make a final concentration of 1% formic acid and 10 uM L-Cystathionine.
readout_label: IC50 (nM)
# number only, unit nM dropped from output

Req: Given the compound Cn1ncc2ccc(S(=O)(=O)c3ccc(NC(=O)/C=C/c4cccnc4)cc3)cc21 , what is its reported IC50?
Resp: 2.6
